systemTested: tau, CBD FC homogenates (Homo sapiens, UniProt P10636)
Sequence (P10636 561-697 limits assumed): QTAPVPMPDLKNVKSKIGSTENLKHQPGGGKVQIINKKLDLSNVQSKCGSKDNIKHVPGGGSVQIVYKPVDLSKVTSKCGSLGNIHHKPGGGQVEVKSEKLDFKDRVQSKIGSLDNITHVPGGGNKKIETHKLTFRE
testProtocol: ^3H-PI2620 competitive binding assay in CBD frontal cortex brain homogenates
conditions: vs 1 nM ^3H-PI2620, read-out: IC50(2), HA site
Description: Frozen human brain tissue from eleven AD, five CBD, four PSP and eight control patients was provided by the Netherlands Brain Bank (Amsterdam, Netherlands). Frozen human brain tissue from PSP case number 26 was provided by Professor Bernadino Ghetti, the Neuropathology of Dementia Laboratory, Indiana University School of Medicine (Indianapolis, IN, USA) (see Table 1 for demographic data). […]
attributeMeasured: IC50 (nM)
One number for each entry, in nM.

Q: What measured IC50 is associated with Fc1cc(-c2ccc3c(n2)[nH]c2ccncc23)ccn1 on tau, CBD FC homogenates (Homo sapiens, UniProt P10636)?
Ans: 7.7

###

systemTested: tau, PSP FC homogenates (Homo sapiens)
Sequence (P10636 561-698 limits assumed): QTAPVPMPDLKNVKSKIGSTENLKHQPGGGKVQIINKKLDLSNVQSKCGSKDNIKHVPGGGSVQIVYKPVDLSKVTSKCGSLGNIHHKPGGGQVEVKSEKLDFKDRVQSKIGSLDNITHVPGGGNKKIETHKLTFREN
testProtocol: ^3H-PI2620 competitive binding assay in PSP frontal cortex brain homogenates
conditions: vs 0.6 nM ^3H-PI2620, only one binding site
Description: Frozen human brain tissue from eleven AD, five CBD, four PSP and eight control patients was provided by the Netherlands Brain Bank (Amsterdam, Netherlands). Frozen human brain tissue from PSP case number 26 was provided by Professor Bernadino Ghetti, the Neuropathology of Dementia Laboratory, Indiana University School of Medicine (Indianapolis, IN, USA) (see Table 1 for demographic data). […]
attributeMeasured: IC50 (nM)
One number for each entry, in nM.

Q: What measured IC50 is associated with Fc1cc(-c2ccc3c(n2)[nH]c2ccncc23)ccn1 on tau, PSP FC homogenates (Homo sapiens)?
Ans: 2.5
